- assayTarget: human 5HT1A receptor (Homo sapiens)
- Sequence (P08908 whole entry): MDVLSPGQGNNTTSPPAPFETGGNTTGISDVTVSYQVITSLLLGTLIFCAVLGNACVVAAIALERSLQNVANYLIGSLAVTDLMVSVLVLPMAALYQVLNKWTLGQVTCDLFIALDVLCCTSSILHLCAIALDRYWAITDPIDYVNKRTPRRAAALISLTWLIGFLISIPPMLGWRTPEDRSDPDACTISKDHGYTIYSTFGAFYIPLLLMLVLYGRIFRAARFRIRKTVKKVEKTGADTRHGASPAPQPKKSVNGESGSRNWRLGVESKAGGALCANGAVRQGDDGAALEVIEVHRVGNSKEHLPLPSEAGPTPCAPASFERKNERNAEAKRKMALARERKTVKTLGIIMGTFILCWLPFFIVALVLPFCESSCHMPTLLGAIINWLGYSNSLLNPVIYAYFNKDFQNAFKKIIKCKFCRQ
- methodDescription: 5-HT1A Receptor Binding Assay (displacement of [3H]8-OH-DPAT in CHO cells stably transfected with human 5HT1A receptor)
- condition: displacement of 8-OH-DPAT, 1.5 nM ligand, 30 minute incubation at room temperature
pKi: −log10 of the molar value.
assayMetric: pKi

c1ccc(Cc2nc(C3CCCCC3)oc2CN2CCN(c3cccc4[nH]ccc34)CC2)cc1	8.15

a = c1ccc(Cc2nc(C3CCCCC3)oc2CN2CCN(c3cccc4c3OCCO4)CC2)cc1
b = COc1ccccc1N1CCN(Cc2oc(C3CCCCC3)nc2Cc2ccccc2)CC1
Incoming: From the items above, decide which of a and b has the lower pKi reading. Field: selected label. Fill in the label of the entry you choose.
Outgoing: a

Origin of the recorded values: patent US6242448A
